The origin of these recorded values is patent US11130803B2.

(E) hGARP, Cell-associated proTGFb1 (KD) for assorted molecules
Target or system: T1, recombinant human GARP-proTGFβ1 complex (Homo sapiens, UniProt P01137)
T1 construct: made in house
T1 sequence (P01137 30-390): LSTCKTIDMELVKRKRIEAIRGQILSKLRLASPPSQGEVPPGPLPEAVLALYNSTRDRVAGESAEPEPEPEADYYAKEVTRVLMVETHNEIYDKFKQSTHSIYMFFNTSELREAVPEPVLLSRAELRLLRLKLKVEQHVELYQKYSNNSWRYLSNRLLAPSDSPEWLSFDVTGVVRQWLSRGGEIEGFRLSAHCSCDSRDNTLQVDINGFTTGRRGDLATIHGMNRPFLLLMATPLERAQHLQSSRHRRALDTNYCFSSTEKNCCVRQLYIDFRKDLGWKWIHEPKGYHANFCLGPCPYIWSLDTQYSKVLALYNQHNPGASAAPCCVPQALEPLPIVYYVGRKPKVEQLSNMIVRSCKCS
T1 sequence (Q14392 20-627 partner limits assumed): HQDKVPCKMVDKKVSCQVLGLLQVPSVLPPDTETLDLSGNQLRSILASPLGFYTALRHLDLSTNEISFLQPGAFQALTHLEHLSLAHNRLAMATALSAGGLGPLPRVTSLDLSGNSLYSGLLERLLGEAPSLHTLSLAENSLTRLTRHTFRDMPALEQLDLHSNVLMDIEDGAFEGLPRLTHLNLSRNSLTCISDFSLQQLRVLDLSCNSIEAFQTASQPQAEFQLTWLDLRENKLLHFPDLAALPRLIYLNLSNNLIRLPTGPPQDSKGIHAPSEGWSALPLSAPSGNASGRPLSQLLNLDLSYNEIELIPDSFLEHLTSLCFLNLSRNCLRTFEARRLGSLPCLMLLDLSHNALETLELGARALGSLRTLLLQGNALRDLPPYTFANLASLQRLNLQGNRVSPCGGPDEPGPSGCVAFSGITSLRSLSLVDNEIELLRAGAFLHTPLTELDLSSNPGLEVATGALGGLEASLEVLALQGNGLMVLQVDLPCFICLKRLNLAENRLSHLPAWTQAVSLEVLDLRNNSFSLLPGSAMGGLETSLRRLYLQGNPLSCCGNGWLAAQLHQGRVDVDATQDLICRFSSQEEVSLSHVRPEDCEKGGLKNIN
Assay notes: Octet (Biolayer Interferometry) in vitro kinetic binding
Measurement context: in M
Readout name: (E) hGARP, Cell-associated proTGFb1 (KD)

Molecule	Readout name	Reported measurement
Ab16: monoclonal antibody; VH SEQ ID NO: 247, VL SEQ ID NO: 241 (antibody, V domains shown) VH: EVQLLESGGGLVQPGGSLRLSCAASGFTFSNYAMSWVRQAPGKGLEWVSAISGSGFTTYYADSVKGRFTISRDNSKNTLYLQMNSLRAEDTAVYYCARVSSGHWDFDYWGQGTLVTVSS VL: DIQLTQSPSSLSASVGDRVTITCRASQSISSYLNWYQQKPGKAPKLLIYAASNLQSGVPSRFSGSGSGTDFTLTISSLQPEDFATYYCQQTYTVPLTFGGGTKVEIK	(E) hGARP, Cell-associated proTGFb1 (KD)	4.16E−09
Ab24: monoclonal antibody; VH SEQ ID NO: 132, VL SEQ ID NO: 15 (antibody, V domains shown) VH: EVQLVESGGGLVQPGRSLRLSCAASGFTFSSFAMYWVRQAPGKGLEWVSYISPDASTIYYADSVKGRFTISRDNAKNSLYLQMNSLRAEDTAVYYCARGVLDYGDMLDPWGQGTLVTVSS VL: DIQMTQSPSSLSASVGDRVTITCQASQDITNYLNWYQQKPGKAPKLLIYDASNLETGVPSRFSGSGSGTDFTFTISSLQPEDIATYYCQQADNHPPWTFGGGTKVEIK	(E) hGARP, Cell-associated proTGFb1 (KD)	6.65E−10
